test-system: MEK1 (Homo sapiens)
Construct: purchased Thermo Fisher Scientific Inc. (MEK1, CRAF); Carna Biosciences, Inc. (ERK2)
Sequence (Q02750 whole entry): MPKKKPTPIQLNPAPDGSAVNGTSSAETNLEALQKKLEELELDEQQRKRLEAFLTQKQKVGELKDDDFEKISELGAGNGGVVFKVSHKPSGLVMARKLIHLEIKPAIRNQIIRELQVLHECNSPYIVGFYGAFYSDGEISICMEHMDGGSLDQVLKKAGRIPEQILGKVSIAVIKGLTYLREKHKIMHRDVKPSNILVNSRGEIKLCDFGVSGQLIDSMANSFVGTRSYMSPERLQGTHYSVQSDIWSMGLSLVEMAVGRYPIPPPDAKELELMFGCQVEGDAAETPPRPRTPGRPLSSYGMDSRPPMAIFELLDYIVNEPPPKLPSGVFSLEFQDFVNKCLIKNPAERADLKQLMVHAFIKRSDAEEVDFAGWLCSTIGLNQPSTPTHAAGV
assay-protocol: MEK1-inhibiting activity, fluorescent polarization method (CRAF/MEK1/ERK2 cascade, IMAP)
Assay type: biochemical
experimental-parameters: Table 1
pIC50: −log10 of the molar value.
quantity-measured: pIC50

CNS(=O)(=O)NCC(=O)N(Cc1cc(C(=O)NOCCO)c(Nc2ccc(I)cc2F)c(F)c1F)OC :: 7.68

---

assay-protocol: Human liver microsome stability
Format: in vitro ADME
experimental-parameters: human liver microsomes, pH 7.4
quantity-measured: microsomal CLint at 0.99 µM (µL/min/mg)

C#Cc1ccc(Nc2c(C(N)=O)cc(Cc3ccnc(NS(=O)(=O)NC)c3F)c(F)c2F)c(F)c1 :: 13
CC(C)S(=O)(=O)Nc1cccc(Oc2cncc(Nc3ccc(I)cc3F)c2C(N)=O)c1 [Ref-3, reference compound] :: 11
Cc1c(Nc2ccc(I)cc2F)c(C(N)=O)cn(Cc2ccnc(NS(=O)(=O)NC3(C)CCC3)c2F)c1=O :: 37
CNS(C)(=O)=Nc1cc(Cc2cc(C(N)=O)c(Nc3ccc(I)cc3F)c(F)c2F)ccn1 (stereo not drawn) :: 40
COCC1(S(=O)(=O)Nc2cccc(Cc3cc(C(N)=O)c(Nc4ccc(I)cc4F)c(F)c3F)c2F)CC1 :: 115
NC(=O)c1cc(Cc2ccnc(NS(N)(=O)=O)c2)c(F)c(F)c1Nc1ccc(I)cc1F :: 10
CNS(=O)(=O)Nc1nccc(Cc2cc(C(=O)N[C@@H]3C[C@H]3C)c(Nc3ccc(I)cc3F)c(F)c2F)c1F (racemic) :: 22
CONC(=O)c1cc(Cc2cccc(NS(N)(=O)=O)c2F)c(F)c(F)c1Nc1ccc(I)cc1F :: 18
NC(=O)c1cc(Cc2ccnc(NS(=O)(=O)NCCF)c2F)c(F)c(F)c1Nc1ccc(I)cc1F :: 6
COCC1(S(=O)(=O)Nc2cccc(Cc3cc(C(=O)NOC(C)(C)C)c(Nc4ccc(I)cc4F)c(F)c3F)c2F)CC1 :: 168
CNS(=O)(=O)Nc1nccc(Cn2cc(C(N)=O)c(Nc3ccc(I)cc3F)c(C)c2=O)c1F :: 15
CNS(=O)(=O)Nc1nccc(Cc2cc(C(N)=O)c(Nc3ccc(C4CC4)cc3F)c(F)c2F)c1F :: 1
NC(=O)c1cc(Cc2cccc(NS(=O)(=O)NC[C@H]3CCCO3)c2F)c(F)c(F)c1Nc1ccc(I)cc1F :: 68
CCS(=O)(=O)Nc1nccc(Cn2cc(C(N)=O)c(Nc3ccc(I)cc3F)c(C)c2=O)c1F :: 3
CCS(=O)(=O)Nc1cccc(Cc2cc(C(N)=O)c(Nc3ccc(I)cc3F)n(C)c2=O)c1F :: 69

---

Recorded IC50 values for a group of compounds are listed next.
test-system: BRAF (Homo sapiens)
Construct: purchased Eurofins Genomics KK; (BRAF); Thermo Fisher Scientific Inc. (MEK1)
Sequence (P15056 417-766 limits assumed): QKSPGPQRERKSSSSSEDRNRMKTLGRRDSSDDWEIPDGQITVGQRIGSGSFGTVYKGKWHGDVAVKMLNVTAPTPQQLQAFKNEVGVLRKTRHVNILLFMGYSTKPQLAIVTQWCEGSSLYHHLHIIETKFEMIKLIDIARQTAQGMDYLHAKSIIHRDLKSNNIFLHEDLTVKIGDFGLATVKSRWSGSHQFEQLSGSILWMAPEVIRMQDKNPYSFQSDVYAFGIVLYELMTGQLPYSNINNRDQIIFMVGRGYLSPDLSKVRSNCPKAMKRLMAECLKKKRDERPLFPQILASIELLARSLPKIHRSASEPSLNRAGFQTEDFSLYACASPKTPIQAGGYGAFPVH
assay-protocol: BRAF-inhibiting activity, time-resolved fluorescence-fluorescence resonance energy transfer assay
Assay type: biochemical
experimental-parameters: Table 3; read-out: BRAF IC50
quantity-measured: IC50

CNS(=O)(=O)Nc1cccc(Cc2cc(C(=O)NOC)c(Nc3ccc(C4CC4)cc3F)c(F)c2F)c1F [Compound D-16] :: 6 nM
CNS(=O)(=O)Nc1cccc(Cc2cc(C(N)=O)c(Nc3ccc(C4CC4)cc3F)c(F)c2F)c1F [Compound D-14] :: 7 nM
CCS(=O)(=O)Nc1cccc(Cc2cc(C(=O)NOC(C)(C)C)c(Nc3ccc(I)cc3F)n(C)c2=O)c1F [Compound K-9] :: 8 nM
CNS(=O)(=O)Nc1nccc(Cc2cc(C(=O)N[C@@H]3C[C@H]3C)c(Nc3ccc(I)cc3F)c(F)c2F)c1F (racemic) [Compound B-5] :: 6 nM
NC(=O)c1cc(Cc2ccnc(NS(=O)(=O)NC3C4COCC43)c2F)c(F)c(F)c1Nc1ccc(I)cc1F (stereo not shown) [Compound A-22] :: 2 nM
C#Cc1ccc(Nc2c(C(N)=O)cc(Cc3ccnc(NS(=O)(=O)NC)c3F)c(F)c2F)c(F)c1 [Compound A-26] :: 9 nM
CNS(=O)(=O)Nc1nccc(Cc2cc(C(N)=O)c(Nc3ccc(I)cc3F)cn2)c1F [Compound L-1] :: 2 nM
CS(=O)(=O)Nc1cccc(Cc2cc(C(=O)NC3CC3)c(Nc3ccc(I)cc3F)c(F)c2F)c1F [Compound E-25] :: 11 nM
COCC1(NS(=O)(=O)Nc2nccc(Cc3cc(C(N)=O)c(Nc4ccc(I)cc4F)c(F)c3F)c2F)CC1 [Compound A-16] :: 3 nM
C=Cc1ccc(Nc2c(C(N)=O)cc(Cc3ccnc(NS(=O)(=O)NC)c3F)c(F)c2F)c(F)c1 [Compound A-19] :: 3 nM
CCS(=O)(=O)Nc1nccc(Cc2cc(C(=O)NOC)c(Nc3ccc(C4CC4)cc3F)c(F)c2F)c1F [Compound G-8] :: 7 nM
CNS(=O)(=O)Nc1nccc(Cc2cc(C(=O)N[C@H]3C[C@H]3C)c(Nc3ccc(I)cc3F)c(F)c2F)c1F (racemic) [Compound B-4] :: 5 nM
CNS(C)(=O)=Nc1nccc(Cc2cc(C(N)=O)c(Nc3ccc(I)cc3F)c(F)c2F)c1F (stereo not shown) [Compound A-43] :: 10 nM
NC(=O)c1cc(Cc2ccnc(NS(=O)(=O)NC3CCOCC3)c2F)c(F)c(F)c1Nc1ccc(I)cc1F [Compound A-29] :: 11 nM
CNS(=O)(=O)Nc1nccc(Cn2cc(C(N)=O)c(Nc3ccc(SC)cc3F)c(F)c2=O)c1F [Compound N-3] :: 5 nM
CC(O)CNS(=O)(=O)Nc1nccc(Cc2cc(C(N)=O)c(Nc3ccc(I)cc3F)c(F)c2F)c1F (racemic) [Compound A-17] :: 4 nM
COCC1(S(=O)(=O)Nc2cccc(Cc3cc(C(=O)NOC)c(Nc4ccc(I)cc4F)c(F)c3F)c2F)CC1 [Compound E-3] :: 5 nM
Cn1c(Nc2ccc(C3CC3)cc2F)c(C(N)=O)cc(Cc2ccnc(NS(=O)(=O)NC3CC3)c2F)c1=O [Compound J-4] :: 14 nM
CC1(NS(=O)(=O)Nc2nccc(Cc3cc(C(=O)NC4CC4)c(Nc4ccc(C5CC5)cc4F)c(F)c3F)c2F)CCC1 [Compound G-5] :: 78 nM
CNS(=O)(=O)Nc1nccc(Cc2cc(C(N)=O)c(Nc3ccc4sccc4c3F)c(F)c2F)c1F [Compound H-3] :: 4 nM
CNS(=O)(=O)Nc1nccc(Cc2cc(C(N)=O)c(Nc3ccc(SC)cc3F)c(F)c2F)c1F [Compound A-18] :: 4 nM
C#Cc1ccc(Nc2c(C(N)=O)cc(Cc3ccnc(NS(=O)(=O)NCCC)c3F)c(F)c2F)c(F)c1 [Compound A-20] :: 2 nM
CONC(=O)c1cc(Cc2ccnc(NS(C)(=O)=O)c2F)c(F)c(F)c1Nc1ccc(C2CC2)cc1F [Compound G-9] :: 13 nM
CNS(=O)(=O)Nc1nccc(Cc2cc(C(N)=O)c(Nc3ccc(SC(F)F)cc3F)c(F)c2F)c1F [Compound H-1] :: 2 nM
CNS(=O)(=O)Nc1nccc(Cc2cc(C(=O)NC3CC3(F)F)c(Nc3ccc(I)cc3F)c(F)c2F)c1F (racemic) [Compound B-6] :: 15 nM
CCNS(=O)(=O)Nc1nccc(Cc2cc(C(=O)NOCCO)c(Nc3ccc(I)cc3F)c(F)c2F)c1F [Compound A-44] :: 19 nM
CNS(=O)(=O)Nc1nccc(Cc2cc(C(N)=O)c(Nc3ccc(C4CC4)cc3F)c(F)c2F)c1F [Compound A-1] :: 1 nM
CC1(NS(=O)(=O)Nc2nccc(Cc3cc(C(N)=O)c(Nc4ccc(C5CC5)cc4F)c(F)c3F)c2F)CCC1 [Compound A-46] :: 30 nM

---

Recorded IC50 values for a group of compounds are listed next.
test-system: MEK1 (Homo sapiens)
Construct: purchased Thermo Fisher Scientific Inc. (MEK1, CRAF); Carna Biosciences, Inc. (ERK2)
assay-protocol: MEK1-inhibiting activity, fluorescent polarization method (CRAF/MEK1/ERK2 cascade, IMAP)
Assay type: biochemical
experimental-parameters: Table 3; read-out: MEK1 IC50
quantity-measured: IC50 (nM)

CNS(=O)(=O)Nc1nccc(Cc2cc(C(N)=O)c(Nc3ccc(I)cc3C)c(F)c2F)c1F :: 56
CCNS(=O)(=O)Nc1nccc(Cc2cc(C(N)=O)c(Nc3ccc(I)cc3F)c(F)c2F)c1F :: 19
Cn1c(Nc2ccc(I)cc2F)c(C(N)=O)cc(Cc2cccc(NS(=O)(=O)NC3CC3)c2F)c1=O :: 84
CCS(=O)(=O)Nc1nccc(Cn2cc(C(N)=O)c(Nc3ccc(I)cc3F)c(C)c2=O)c1F :: 8
CNS(=O)(=O)Nc1nccc(Cc2cc(C(N)=O)c(Nc3ccc(Br)cc3F)c(F)c2F)c1F :: 32
CONC(=O)c1cc(Cc2cccc(NS(=O)(=O)NC3(C)CCC3)c2F)c(F)c(F)c1Nc1ccc(I)cc1F :: 29
CCS(=O)(=O)Nc1cccc(Cc2cc(C(=O)NOC(C)(C)C)c(Nc3ccc(I)cc3Cl)c(F)c2F)c1F :: 84
CNS(=O)(=O)Nc1cccc(Oc2cc(F)cc(Nc3ccc(I)cc3F)c2C(N)=O)c1 [Ref-2, reference compound] :: 364
CONC(=O)c1cc(Cc2ccnc(NS(=O)(=O)NC3(C)CCC3)c2F)c(F)c(F)c1Nc1ccc(I)cc1F :: 8
CS(=O)(=O)Nc1nccc(Cc2cc(C(=O)NC3CC3)c(Nc3ccc(I)cc3F)c(F)c2F)c1F :: 104
CCS(=O)(=O)Nc1cccc(Cc2cc(C(=O)NC3CC3)c(Nc3ccc(I)cc3F)n(C)c2=O)c1F :: 209
CNS(=O)(=O)Nc1cccc(Cc2cc(C(=O)NOC)c(Nc3ccc(C4CC4)cc3F)c(F)c2F)c1F :: 48
CCS(=O)(=O)Nc1cccc(Cc2cc(C(N)=O)c(Nc3ccc(I)cc3F)c(F)c2F)c1F :: 196
NC(=O)c1cc(Cc2ccnc(NS(=O)(=O)NC3CC3)c2F)c(F)c(F)c1Nc1ccc(I)cc1F :: 9
CNS(=O)(=O)Nc1nccc(Cc2cc(C(=O)NOC(C)(C)C)c(Nc3ccc(I)cc3F)n(C)c2=O)c1F :: 42
CNS(=O)(=O)Nc1cccc(Cc2cc(C(=O)NC3CC3)c(Nc3ccc(C4CC4)cc3F)c(F)c2F)c1F :: 1240
C#Cc1ccc(Nc2c(C(N)=O)cc(Cc3ccnc(NS(=O)(=O)NCCC)c3F)c(F)c2F)c(F)c1 :: 23
NC(=O)c1cc(Cc2ccnc(NS(=O)(=O)NC3CCC3)c2F)c(F)c(F)c1Nc1ccc(I)cc1F :: 25
O=C(NC1CC1)c1cc(Cc2ccnc(NS(=O)(=O)NCCF)c2F)c(F)c(F)c1Nc1ccc(I)cc1F :: 12
CC(C)S(=O)(=O)Nc1cccc(Oc2cncc(Nc3ccc(I)cc3F)c2C(N)=O)c1 [Ref-3, reference compound] :: 5
COCCNS(=O)(=O)Nc1cccc(Cc2cc(C(N)=O)c(Nc3ccc(I)cc3F)c(F)c2F)c1F :: 96
CCS(=O)(=O)Nc1nccc(Cc2cc(C(N)=O)c(Nc3ccc(I)cc3F)c(F)c2F)c1F :: 16
COCC1(S(=O)(=O)Nc2cccc(Cc3cc(C(=O)NOC)c(Nc4ccc(I)cc4F)c(F)c3F)c2F)CC1 :: 33
COCC(C)(C)NS(=O)(=O)Nc1nccc(Cc2cc(C(N)=O)c(Nc3ccc(I)cc3F)c(F)c2F)c1F :: 129
CC(C)ONC(=O)c1cc(Cc2ccnc(NS(=O)(=O)NC3(C)CCC3)c2F)c(F)c(F)c1Nc1ccc(I)cc1F :: 13
NC(=O)c1cc(Cc2ccnc(NS(=O)(=O)NC3C4COCC43)c2F)c(F)c(F)c1Nc1ccc(I)cc1F (centres unmarked) :: 6
CNS(=O)(=O)Nc1nccc(Cc2cc(C(=O)NOCCOC)c(Nc3ccc(I)cc3F)c(F)c2F)c1F :: 4
CCS(=O)(=O)Nc1cccc(Cc2cc(C(=O)NC3CC3)c(Nc3ccc(I)cc3F)c(F)c2F)c1F :: 161
CNS(=O)(=O)Nc1cccc(Cc2cc(C(N)=O)c(Nc3ccc(I)cc3F)c(F)c2F)c1 :: 246
